System: Saccharomyces cerevisiae
Method summary: transcriptional activation domain activity (GFP:mCherry ratio, weighted mean of sorted bins, harmonized to initial dataset scale) (arbitrary fluorescence ratio units); higher = stronger transcriptional activation
Study conditions: beta-estradiol 1 µM; induction time 4 h
Exercise: for every item that follows, state its recorded transcriptional activation domain activity.

query_sequence=DVYNEGHICNHSDDEGRYAYKYQPTMILYAIRALLRSLSVLIGAEEELGNAVA target="Saccharomyces cerevisiae" result=36400
query_sequence=PDIKKRPRKKSRRASAEGSEIGTESGGSDDGRQESAQRRKVERKERAGSSKEV target="Saccharomyces cerevisiae" result=47100
query_sequence=MIDILFFVLFHFFDVLFFSLFCLFLCIILFSSLTFLIYYFFFFFLFFPFFGLF target="Saccharomyces cerevisiae" result=36500
query_sequence=LPLIQRFLIIAPAVIFYSYVYIVPTARRLQLRVCIRNWLGRWYVHLPVLSRSH target="Saccharomyces cerevisiae" result=57400
query_sequence=RKRGWSDEDGEGEGAEGGEAQNGKGKGKGRGRRARGKGKGKGKESAEAEKDED target="Saccharomyces cerevisiae" result=27200

Report transcriptional activation domain activity for every entry below.
1. REGGRRGRGRARSRRQGGKREERGRTRKGRKGGENRPKREGGQGGGERARRRE
2. MSDAAAPAPAPVEEVKPAEAAPEVVPAPRPLRRSPRPRRLRPLRPPPPSAAAE

OUTPUT:
1: 41300; 2: 28400

Give transcriptional activation domain activity for each of the items listed below.
1. IAHRYLVGYVYVRTHSQTGGLVYIWLLKRLGSLLSLQPILLGLIFLSRHLWIE
2. MARQPSAPNAASDRGAATTTPRKPTTRSRTGCSACRKRRTKCDEARPACGHCV

OUTPUT:
1: 55000; 2: 44600

* * *

Test system: Saccharomyces cerevisiae
Method summary: transcriptional activation domain activity (GFP:mCherry ratio, weighted mean of sorted bins, harmonized to initial dataset scale) (arbitrary fluorescence ratio units); higher = stronger transcriptional activation
Study conditions: beta-estradiol 1 µM; induction time 4 h
Can you tell me transcriptional activation domain activity for the items I'm about to list?
Numbers only.

// worked examples, transcriptional activation domain activity included
query_sequence=PVIFRKRPTYLMFISVCLMYIYLFAVVYIRPYKLTRNNHVAIISWITIVIFLF numeric_value=44400
query_sequence=FAGAFKHFQRLGPVSQWDLLAKLPLIVFWILFTCCSLHFYLLFLFLFFIRWVS numeric_value=55200
query_sequence=YRSRGIDEGRGKREAGRERERAERRSTKEAEKGGEGRWEGRSARRKEAGGKKG numeric_value=56700
query_sequence=QLLLVHEGCVMDRLAIAGFEGAALARALWFASFLKGVVRQDRIMEGMYYLLAP numeric_value=26300
query_sequence=MGFCFYVAGCMSISLILLFSFCLLLPPIFTGYQILWLLWIILPILSMSMLFTP numeric_value=43400

I have 2 sequences here; please give me transcriptional activation domain activity for each one.
1. LYNTLFLQLSAIAREFNFPSAAGLCCYMNFSDNGSIFAPRITDDAWIILWRRY
2. TSTTPAGAPPADKPAGSLFGVKPAAAGSSSGGLFGQASNTSVAPSSIATTTAS

OUTPUT:
1: 71800; 2: 28400

* * *

System: Saccharomyces cerevisiae
Method summary: transcriptional activation domain activity (GFP:mCherry ratio, weighted mean of sorted bins, harmonized to initial dataset scale) (arbitrary fluorescence ratio units); higher = stronger transcriptional activation
Study conditions: beta-estradiol 1 µM; induction time 4 h
Short version: transcriptional activation domain activity at least 40000 is 1.0, less is 0.0.

query_sequence=MLSVSLSFPFLLFFFSVSIFLLLLLLFSVSFILLLSLFFCSSFSFFNSFMVFF class=1.0
query_sequence=METATPPQPKKGRRGNPKTRTGCVTCKMRRVKCDEAKPQCKRCISTGRTCDGY class=0.0

INPUT: Evaluate MLLTVYMFIIVFSFFICYHYINLVLQILIAGLLYGLSYVRFSMNWIIYFYNQC : transcriptional activation domain activity at minimum 40000?
OUTPUT: 1.0

INPUT: Determine whether measured transcriptional activation domain activity meets or exceeds 40000 for YTRVVTRFKRLFVSSRGYTAFIPALFKVFCDVEHLAPIRSAIVFAWCRFYAVH
OUTPUT: 1.0

* * *

Test system: Saccharomyces cerevisiae
Method summary: transcriptional activation domain activity (GFP:mCherry ratio, weighted mean of sorted bins, harmonized to initial dataset scale) (arbitrary fluorescence ratio units); higher = stronger transcriptional activation
Study conditions: beta-estradiol 1 µM; induction time 4 h
Please go through the items and note down their transcriptional activation domain activity.
One number for each entry.

I need transcriptional activation domain activity for every entry listed below, if you could help.
1. ASPDADGNGEVKKKYDPKDPMRPRRKKARRACYACQRAHLTCGDERPCQRCIK
2. KKSSTSSTAAPKKRTPAKKSTPAPTPSPSASPEPVKPKKTSSKKAAKPVAVAE

OUTPUT:
1. 43400
2. 25400

Can you give me transcriptional activation domain activity for all of these, one by one?
1. MCSCVIRRHPLAKPKMGSFQSIGALTCSSCSSWKMCILLFLILVWFTFRLTSL
2. MSPPTLREVNVSLPRKFDTPDEPWHRYVTIDLLHYVLGYTLFHPFVSCVLVLC
3. MATLDEALDNEGGKRRRSHKKSRRGCGDCRRRRVKCSEENPRCQACVRRGVQC

OUTPUT:
[21400, 35200, 67400]

* * *

Record form. Attribute: transcriptional activation domain activity. Fill in for each entry.
System: Saccharomyces cerevisiae
Method summary: transcriptional activation domain activity (GFP:mCherry ratio, weighted mean of sorted bins, harmonized to initial dataset scale) (arbitrary fluorescence ratio units); higher = stronger transcriptional activation
Study conditions: beta-estradiol 1 µM; induction time 4 h
Answers are plain numbers.

Observe how each entry below is paired with its result.
query_sequence=PGEVSEAEANGDAPKAEAAVAPDSDEAAKPKKKKKARKPKAAKKGEDGEPAAA numeric_value=17100
query_sequence=LLECREDYINNNIRYCDDNKILLKSMIQMFVDLIPFSDKFLGLIFHIVPSFMH numeric_value=44700
query_sequence=EEGAATDGTADANGKPKKAPRKRKSQAGATTEDGQAPKRRKKKSTDAAGGAAA numeric_value=31300
query_sequence=VHGSSFLVRYFVYITPLVLVILIPLLLGALLFKHASVAGVEMVWFCIWLEIVW numeric_value=50100

Entry WDWARRYHCLAWGGEVSLLSFLPLLPVCLLSWLCRVSPIKWALVAVFFFWLLG ; transcriptional activation domain activity = 65900

* * *

System: Saccharomyces cerevisiae
Method summary: transcriptional activation domain activity (GFP:mCherry ratio, weighted mean of sorted bins, harmonized to initial dataset scale) (arbitrary fluorescence ratio units); higher = stronger transcriptional activation
Study conditions: beta-estradiol 1 µM; induction time 4 h
Decide using transcriptional activation domain activity: a value greater than or equal to 50000 is TRUE, a smaller one is FALSE.

For orientation, consider the following solved cases.
query_sequence=EDEGEKDDDEEVKEVKEEGDNSGEEGKEGNGEEAKTEEDKPSEEQQQQAKEEA target="Saccharomyces cerevisiae" class=FALSE
query_sequence=VNDAARILLAGLLEIKYTIREHLKSMFGSPWIIMYWRNWSGPLNITLELLGKC target="Saccharomyces cerevisiae" class=FALSE
query_sequence=GEAGAEQGEHGARRARTRGAGCVRGRGREVGEGAGARRRVCGRRCEREARAHN target="Saccharomyces cerevisiae" class=FALSE
query_sequence=MLLTLLLLYILRRCAHTSYIFFSHSGFDFGHLIWGWVSCRLLTFWFLLYSSLL target="Saccharomyces cerevisiae" class=FALSE
query_sequence=LNTFLDSFIFQLFPMVADLWIAAAYFFLYFDAFYSLIIIATTWLYIYITIYMA target="Saccharomyces cerevisiae" class=TRUE
query_sequence=RGSVESDLIILAMTCTLDILMHLPRSVFYRRQLDLFLWLLRVIPSVKTTNSLN target="Saccharomyces cerevisiae" class=FALSE
query_sequence=IINHLIILYLNRHICVMGLLHVPTFLEYYNSLDDPLNDAMVLAVCIDALVNLR target="Saccharomyces cerevisiae" class=FALSE
query_sequence=EYFYYKMLAPSAATVFYVYVGLIKMSIALFNIRLTTLTTKLWGNVNWAFFVIC target="Saccharomyces cerevisiae" class=TRUE
query_sequence=EAKEGEDGEKEKPKRGRKRKEPAADAEDEAADGDAADGEEPPAKKAKPASKAA target="Saccharomyces cerevisiae" class=TRUE
query_sequence=IAMQPGEHQYDFEAHDFGLDLSDDLITQLEAGIGEYAWGSMPMDGNFWDQLYW target="Saccharomyces cerevisiae" class=TRUE

INPUT: Say whether MLMFLRCGLGLRFGVLVCGCRSTFVCWSLQRAFANMLRARSLPWIFLAWVILL shows transcriptional activation domain activity of 50000 or more.
OUTPUT: TRUE

INPUT: Reported transcriptional activation domain activity reaches at least 50000 for MSFFWDTSLCACVTRIREMSFWEFLVGLAFFFFFLVKGSCICVACFFFFFFWS ?
OUTPUT: FALSE

INPUT: Is transcriptional activation domain activity for VVPYYCLFVFFPFYSCVLVRLAGNCHSCLIIALFFLILISGRSFFFFFFFFFF at or above 50000?
OUTPUT: FALSE

INPUT: Dear colleague, could you confirm whether KSPHMSAVESKPKEAKTVVEPKADKAAEVKKEEPKKEVVAAPEPVAAKPIAQI has transcriptional activation domain activity at or above 50000?
OUTPUT: FALSE

INPUT: Quick check, transcriptional activation domain activity >= 50000? ILRCYLQYIFALTLVFFWLLYTLTCSISQFSRHLRSWTCWIFYSLYRRILFLG
OUTPUT: TRUE

INPUT: # bool: transcriptional activation domain activity of IRGKTLPKYFPRFHMWGHIDADIQLMSKGLITPVCIEMVYGMHPFVVYKLFMF >= 50000
OUTPUT: TRUE
